Test: in vitro
Details: human, CEM cells (versus azole-resistant Candida albicans 99-788)
Description: Therapeutic index, IC50 for human CEM cells to IC 50 for azole-resistant Candida albicans 99-788
Measured selectivity ratio, listed per entry.
Number only, please.

- item-smiles: "CON1C(=O)C2NC(=O)[C@@]13Oc1cc(O)c(Cl)cc1[C@@H]3SSSS2"
  selectivity ratio: 50

Per the record, CON1C(=O)[C@H]2NC(=O)[C@]13Oc1cc(O)c(Cl)cc1[C@@H]3SS2 has selectivity ratio of 20

====

Assay: in vitro
Details: human, ccrf-cem
readout-kind: selectivity ratio
Give your answer as a number; write no unit.

response.value for C[C@@H]1[C@H](O)[C@@H](C)/C=C/C=C/C=C/C=C/C=C/C=C/C=C/[C@H](O[C@@H]2O[C@H](C)[C@@H](O)[C@H](N)[C@@H]2O)C[C@@H]2O[C@](O)(C[C@@H](O)C[C@@H](O)[C@H](O)CC[C@@H](O)C[C@@H](O)CC(=O)O[C@H]1C)C[C@H](O)[C@H]2C(=O)O (field: selectivity ratio) = 1000

Origin of the recorded values: ChEMBL document CHEMBL1141795
